Assay: cn = amount concentration of the nth substance listed, in mol/dm3
Details: 303 K; 101 kPa; Liquid; Linear variable-path acoustic interferometer; c1 = 0.01
Numbers after ± are expanded uncertainties.
Each item that follows carries a reported speed of sound.
ASSAY METRIC: speed of sound

INSERT INTO results (molecule, result) VALUES
  ('Cc1ccccc1N [2-methylaniline] + C[S+](C)[O-]', '1472.6 ± 3.2 m/s'),
  ('Nc1ccccc1 [aniline] + C[S+](C)[O-]', '1474.1 ± 3.2 m/s'),
  ('CN(C)c1ccccc1 [N,N-dimethylaniline] + C[S+](C)[O-]', '1471.8 ± 3.2 m/s'),
  ('CNc1ccccc1 [N-methylaniline] + C[S+](C)[O-]', '1471.7 ± 3.2 m/s'),
  ('O=C1C(Cl)=C(Cl)C(=O)C(Cl)=C1Cl [2,3,5,6-tetrachloro-p-benzoquinone] + C[S+](C)[O-]', '1471.6 ± 3.2 m/s');

###

Experiment: cn = amount concentration of the nth substance listed, in mol/dm3
Conditions: 303 K; 101 kPa; Liquid; Linear variable-path acoustic interferometer; c1 = 0.012
Reported speed of sound values follow for various compounds
ASSAY METRIC: speed of sound (m/s)

INSERT INTO results (compound, numeric_value) VALUES
  ('Cc1ccccc1N [2-methylaniline] + C[S+](C)[O-]', 1473.5),
  ('Nc1ccccc1 [aniline] + C[S+](C)[O-]', 1473.7),
  ('CNc1ccccc1 [N-methylaniline] + C[S+](C)[O-]', 1473.5),
  ('O=C1C(Cl)=C(Cl)C(=O)C(Cl)=C1Cl [2,3,5,6-tetrachloro-p-benzoquinone] + C[S+](C)[O-]', 1470.3),
  ('CN(C)c1ccccc1 [N,N-dimethylaniline] + C[S+](C)[O-]', 1472.1);

###

Assay: cn = amount concentration of the nth substance listed, in mol/dm3
Conditions: 303 K; 101 kPa; Liquid; Capillary tube (Ostwald / Ubbelohde) method; c1 = 0.02
ASSAY METRIC: viscosity (mPa·s)

INSERT INTO measurements (compound, numeric_value) VALUES
  ('O=C1C(Cl)=C(Cl)C(=O)C(Cl)=C1Cl [2,3,5,6-tetrachloro-p-benzoquinone] + C[S+](C)[O-]', 1.769),
  ('Cc1ccccc1N [2-methylaniline] + C[S+](C)[O-]', 1.723),
  ('CN(C)c1ccccc1 [N,N-dimethylaniline] + C[S+](C)[O-]', 1.732),
  ('Nc1ccccc1 [aniline] + C[S+](C)[O-]', 1.792),
  ('CNc1ccccc1 [N-methylaniline] + C[S+](C)[O-]', 1.72);

###

Experiment: cn = amount concentration of the nth substance listed, in mol/dm3
Conditions: 303 K; 101 kPa; Liquid; Capillary tube (Ostwald / Ubbelohde) method; c1 = 0.012
Measured viscosity, listed per entry.
ASSAY METRIC: viscosity (mPa·s)

INSERT INTO results (compound, numeric_value) VALUES
  ('Nc1ccccc1 [aniline] + C[S+](C)[O-]', 1.777),
  ('O=C1C(Cl)=C(Cl)C(=O)C(Cl)=C1Cl [2,3,5,6-tetrachloro-p-benzoquinone] + C[S+](C)[O-]', 1.767),
  ('CN(C)c1ccccc1 [N,N-dimethylaniline] + C[S+](C)[O-]', 1.724),
  ('CNc1ccccc1 [N-methylaniline] + C[S+](C)[O-]', 1.733),
  ('Cc1ccccc1N [2-methylaniline] + C[S+](C)[O-]', 1.723);
